Catalogue of GI50 values
System: DLD-1
test: NCI tumour cell line growth inhibition, 48 h
Calls of active or inactive are those of the source. Cut-off read from the data, not from the text of the source: active = GI50 up to about 1.1 µM and inactive = higher.

>  <compound>
COc1ccc(NC(=O)C2=CC(=O)c3ccc(O)cc3C2=O)c(OC)c1

>  <GI50>
> 100 µM (inactive)

$$$$
>  <compound>
CCCCCCCCCCCCCCCc1ccc(OCC(O)CO)cc1 (stereo not given)

>  <GI50>
44.2 µM (inactive)

$$$$
>  <compound>
CCOC(=O)CC(NC(=O)c1nc[nH]c1[N+](=O)[O-])C(=O)OCC (stereo not given)

>  <GI50>
39 µM (inactive)

$$$$
>  <compound>
CC(C(=O)O)c1cnn(-c2ccccc2)c1-n1cccc1 (stereo not given)

>  <GI50>
> 100 µM (inactive)

$$$$
>  <compound>
CC1(C)NC(=O)N(CCCCCCN2C(=O)NC(C)(C)C2=O)C1=O

>  <GI50>
> 100 µM (inactive)

$$$$
